target: Gal(a1-4)Gal(b1-4)GlcNAc(b1-3)Gal(b1-4)Glc; assay: glycan array binding signal (z-score within array); higher = stronger binding; conditions: glycan notation: IUPAC condensed, linker removed
The sample as a whole holds a higher share of the strongest signals than the screen did.
Cut-off 0.06 on glycan array binding signal (z-score), inclusive. At or above means yes; below means no.

binder	class_assignment
FimA-N3 (Actinomyces oris) (protein) MHHHHHHSSGVDLGTENLYFQSNAGLQGAQFQLYKAKNAYANTCSNEKEGAPIAINGQTTLTTDAQGAIDIKGLFISDSIDGADRDNQVNAMERCYVLVETKAPAGYVLPAGNGAATPVKVKAGEETTDN	no
Epa12 (Candida glabrata) (protein) MGSSHHHHHHSSGLVPRGSHMLEPDNSLQIFDSFLSNPSKYPLGCSPKITNPKKGLSMELYSYPYRKKGSHPCWDPAYLDPNFPRVGYKKNKLIARVDGVSGDINFNFHPKRQCTPIADYLPPNFNYNEPITTTNFTMLLYGYFKPKVTGLHTFDISADDLLFMNFGAGNAFDCCRRDSTADTFGNYVAWAIWGRRIVRNKLTVRLDKGIYYPLRLFFNNRDYYGQMRLTFKTEHGSERITDFSDYFFSVDDTSEGCPGLITYESECADVKSSTVLETDYITIQAEKE	yes
PGP3 (Chlamydia trachomatis), P0CE18 (protein) MGNSGFYLYNTQNCVFADNIKVGQMTEPLKDQQIILGTTSTPVAAKMTASDGISLTVSNNPSTNASITIGLDAEKAYQLILEKLGDQILGGIADTIVDSTVQDILDKITTDPSLGLLKAFNNFPITNKIQCNGLFTPRNIETLLGGTEIGKFTVTPKSSGSMFLVSADIIASRMEGGVVLALVREGDSKPYAISYGYSSGVPNLCSLRTRIINTGLTPTTYSLRVGGLESGVVWVNALSNGNDILGITNTSNVSFLEVIPQTNA	no

Entry PA-IL (Pseudomonas aeruginosa), Q05097 (protein) MAWKGEVLANNEAGQVTSIIYNPGDVITIVAAGWASYGPTQKWGPQGDREHPDQGLICHDAFCGALVMKIGNSGTIPVNTGLFRWVAPNNVQGAITLIYNDVPGTYGNNSGSFSVNIGKDQS : is its glycan array binding signal (z-score) no less than 0.06?
yes

Does FliC (Clostridium difficile) (protein) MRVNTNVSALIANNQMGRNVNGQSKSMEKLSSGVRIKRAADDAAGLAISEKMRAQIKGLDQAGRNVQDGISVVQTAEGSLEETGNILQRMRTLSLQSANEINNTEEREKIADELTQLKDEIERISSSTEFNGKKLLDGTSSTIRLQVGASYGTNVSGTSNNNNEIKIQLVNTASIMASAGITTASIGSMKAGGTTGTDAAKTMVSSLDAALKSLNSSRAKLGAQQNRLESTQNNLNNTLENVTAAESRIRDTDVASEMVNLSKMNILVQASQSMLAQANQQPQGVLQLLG have a reported glycan array binding signal (z-score) of at least 0.06?
yes

Can AidA (Burkholderia cenocepacia) (protein) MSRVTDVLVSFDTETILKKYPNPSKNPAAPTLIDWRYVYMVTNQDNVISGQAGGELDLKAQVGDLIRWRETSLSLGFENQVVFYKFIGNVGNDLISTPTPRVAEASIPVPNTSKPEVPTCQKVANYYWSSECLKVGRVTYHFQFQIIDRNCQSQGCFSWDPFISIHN be said to have glycan array binding signal (z-score) at or above 0.06?
no

Numbers sourced from the supplement of paper PMC8728848.
